- TARGET ENTITY: T1, hIL27Rα ECD antigen (human, UniProt Q6UWB1 33-516)
- T1 construct: Antigen of biopanning and PE-ELISA; also called ECD of the human IL27Rα; IL27Rα coated on the plate
- T1 sequence: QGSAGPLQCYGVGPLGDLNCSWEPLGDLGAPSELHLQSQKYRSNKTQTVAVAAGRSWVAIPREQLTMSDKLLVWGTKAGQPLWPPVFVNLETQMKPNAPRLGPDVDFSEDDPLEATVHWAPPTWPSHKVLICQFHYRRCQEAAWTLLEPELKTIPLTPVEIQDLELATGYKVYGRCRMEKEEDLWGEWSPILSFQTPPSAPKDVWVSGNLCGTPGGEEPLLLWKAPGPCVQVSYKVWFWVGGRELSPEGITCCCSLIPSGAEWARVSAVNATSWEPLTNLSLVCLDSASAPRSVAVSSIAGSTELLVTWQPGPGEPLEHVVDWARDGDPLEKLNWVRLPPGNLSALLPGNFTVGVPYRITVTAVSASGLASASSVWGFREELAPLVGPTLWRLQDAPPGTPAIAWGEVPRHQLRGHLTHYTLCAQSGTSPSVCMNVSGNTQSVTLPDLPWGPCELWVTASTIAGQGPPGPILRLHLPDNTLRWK
- TEST NAME: PE-ELISA, periplasmic extract on antigen-coated plate

# BINDER, binding result
measured = [
    ("hIL27Ra VHH23 (VHH, Camel VHH as periplasmic extract of a phage clone in the PE-ELISA; also called anti-human IL27Rα VHH; not shown: HA/His tag from the pMECS phagemid) VHH: QVQLQESGGGSVQAGGSLRLSCRASRSPYGNYCLGWFRQSTGKEREGVAVINWVGGMLYFADSVKGRFTVSQDHAKNTVTLQMNSLKPEDTAMYYCAAESVSSFSCGGWLTRPDRVPYWGQGTQVTVSS", "binds"),
    ("hIL27Ra VHH11 (VHH, Camel VHH as periplasmic extract of a phage clone in the PE-ELISA; also called anti-human IL27Rα VHH; not shown: HA/His tag from the pMECS phagemid) VHH: QVQLQESGGGSVQAGGSLRLSCRASGSTYSNYCLGWFRQSTGKEREGVAVINWVGGMLYFADSVKGRFTVSQDHAKNTVTLQMNSLKPEDTAMYYCAAESVSSFSCGGWLTRPGRVPYWGQGTQVTVSS", "binds"),
    ("hIL27Ra VHH14 (VHH, Camel VHH as periplasmic extract of a phage clone in the PE-ELISA; also called anti-human IL27Rα VHH; not shown: HA/His tag from the pMECS phagemid) VHH: QVQLQESGGGSVQAGGSLRLSCVASGYVSCDYFLPSWYRQAPGKEREFVSIIDGTGSTSYAASVKGRFTASQDKGKNIAYLQMNSLKPEDTAMYYCKASCVRGRAISEYWGQGTQVTVSS", "binds"),
    ("hIL27Ra VHH4 (VHH, Camel VHH as periplasmic extract of a phage clone in the PE-ELISA; also called anti-human IL27Rα VHH; not shown: HA/His tag from the pMECS phagemid) VHH: QVQLQESGGGLVQPGESLRLSCTASGFTFSNYAMSWVRQAPGKGLEWVSGINVAYGITSYADSVKGRFTISRDNTKNTLYLQLNSLKTEDTAIYYCVKHSGTTIPRGFISYTKRGQGTQVTVSS", "binds"),
]

Reference source: patent US12157773
